# TEST SYSTEM: T1, PDGFR ectodomain (residues 33-314) (human, UniProt P09619 33-314)
# T1 construct: range 33-314; also called Platelet-derived growth factor receptor
# T1 sequence (P09619 other isoform, or with tags, fused parts or gaps limits assumed): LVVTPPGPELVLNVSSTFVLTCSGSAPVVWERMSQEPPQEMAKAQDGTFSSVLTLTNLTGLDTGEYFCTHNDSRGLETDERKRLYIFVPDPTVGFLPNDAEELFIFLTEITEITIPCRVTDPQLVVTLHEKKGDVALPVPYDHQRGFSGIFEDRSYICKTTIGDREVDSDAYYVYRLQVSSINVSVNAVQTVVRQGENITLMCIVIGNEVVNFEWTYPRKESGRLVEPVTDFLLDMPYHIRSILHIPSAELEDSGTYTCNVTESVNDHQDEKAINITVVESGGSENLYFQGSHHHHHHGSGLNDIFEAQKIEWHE
# EXPERIMENTAL DETAILS: BLI (Octet); biotinylated target on streptavidin sensors, miniprotein as analyte
MEASURED QUANTITY: pKd
Scale note: pKd = -log10(concentration in M).

Entry PDGFR_mb (designed binder) MSHHHHHHHHSENLYFQSGGGDDERLATLAFRALIKRAGVKNLDVKVTNGKVRVTITGRDQASFKALQLVFALARRLGLQVQIDTR needs its pKd filled in; supply it.
7.28
